Entry source: a melting point compilation (Tetko et al.; mined from patent text by program, amines drawn as free bases though some values may be those of a salt)

Known melting point of a selection of compounds

Input: Quick one: melting point for "O=c1c2c(Cl)cc(Cl)cc2n(Cc2ccccc2)c(=O)n1Cc1cccc(F)c1" ?
Output: 112 to 116 °C

Input: Entry to check: O=C(OCC1OCCS1=O)c1ccccc1 (centres undefined)
Output: 70 to 72 °C

Input: What do we get for "CCOC(=O)C=CC(=O)c1ccc(Oc2ccc(Cl)c(Cl)c2)cc1" ?
Output: 115 to 117 °C

Input: What about this compound? "O=C(O)Cc1ccc(Oc2ccc(F)cc2)cc1"
Output: 87 to 89 °C

Input: What do you get for "Cc1noc(NC(=O)N2CCN(c3cc(-c4cccc(F)c4)ncn3)CC2)c1C" ?
Output: 185 to 186 °C

====

Entries annotated with measured melting point

Solved cases (3 shown):
* Cc1cc2c(c3ccc(=O)[nH]c13)OC(C(O)CN=[N+]=[N-])C2 (centres undefined) | 173 to 175 °C
* COC(=O)c1cccc(C=O)c1O | 82 to 84 °C
* CCc1c(C(=O)OC(C)C)ncc2[nH]c3ccc4ncc(C)nc4c3c12 | 215 to 216 °C

Input: Fill blank: measured melting point of the molecule "COc1ccc(NC(=O)c2ccc(Cl)c(Cl)c2)cc1NS(=O)(=O)c1ccc(C)cc1" is ____.
Output: 228 to 230 °C

Input: Next: "O=C(O)c1snc(-c2cc(C(F)(F)F)cc(C(F)(F)F)c2)c1C(=O)O"
Output: 193 to 194 °C

Input: # iterate: "Cc1nc(-c2cc(C)c(OCCCc3cnc4ccccc4c3)c(C)c2)no1"
Output: 105 to 107 °C

Input: Moving on to CCCCCCCCCCCCCCCCCCNC(=O)OCC(CN(C(C)=O)S(=O)(=O)CCCCl)NC(C)=O (centres undefined)
Output: 116 to 117 °C

Input: Same again, this time with COc1ccc(C(=O)OC(=O)NC(CO)Cc2ccc(O)cc2)cc1OC (centres undefined)
Output: 152 to 155 °C

Input: Also, CS(=O)(=O)N1CCN(S(=O)(=O)c2ccc(-c3cccs3)cc2)[C@@H](C(=O)NOC2CCCCO2)C1 (some centres undefined) please.
Output: 194 to 195 °C

====

Each entry below lists one item and its recorded melting point value.

The cases that follow already have their melting point on record.
• O=C(NCCCCCCCCc1ccccc1)c1cc(-c2cccc(C(F)(F)F)c2)cc(-c2cccc(C(F)(F)F)c2OCCCCc2nnn[nH]2)c1 = 145 to 151 °C
• CC(C)CN1CCC(c2ccc(Br)cc2)CC1 = 36 to 37 °C

Input: Could you tell me which melting point is on file for Cc1ccc(S(=O)(=O)NCCC(C(=O)NO)C2(CC(C)C)CCN(CCc3ccccc3)C2=O)cc1 (stereo not given) ?
Output: 166 to 167 °C

Input: Would you kindly repeat that for "COc1ccc(C(=O)Nc2c(Cl)cc(CO)cc2Cl)cc1OC1CCCC1" ?
Output: 174 to 176 °C

====

In this section we review reported melting point values for a set of compounds.

* O=C1Nc2ccc(NC(=O)C(=O)N3CCC(Cc4ccc(F)cc4)CC3)cc2C1=O | 205 to 206 °C
* Cc1ccc2c(c1)N(CC(=O)c1ccccc1C)C(=O)C(NC(=O)Nc1cccc(C(=O)O)c1)CN2C(=O)CC(C)C (centres undefined) | 202 to 205 °C
* CCC(CC)c1ccc(Cl)c2nc3n(c12)CCCCN3c1ccc(OC)nc1OC | 85 to 88 °C
* CC(Sc1ncnc2[nH]cnc12)c1oc2ccc(Br)cc2c(=O)c1-c1ccccc1 (centres undefined) | 234 to 237 °C
* COc1nc(C)c(C(C)=O)cc1NC(=S)N1CCN(c2cccc(O)c2)CC1 | 114 to 115 °C
* CCOc1c(C)c(N2CCN(c3ccc(C)cc3)CC2)c(C)c2c1OC(C)C2 (centres undefined) | 96 to 98 °C
* COc1cc(C(=O)CCCN2CCC(OC(=O)c3cc(Cl)c(N)c4c3OCCC4)CC2)cc(OC)c1OC | 113 °C
* O=C(O)c1cn(CCF)c2c(F)c(F)c(F)cc2c1=O | 208 to 210 °C

Input: Give the measured melting point of O=C1Nc2ccccc2CCCC1N1C(=O)c2ccccc2C1=O (centres undefined) .
Output: 229 to 230 °C
